Entries and their measured pIC50 follow.
MEASURED ON: Cytosolic phospholipase A2 (Homo sapiens)
Sequence (P47712 whole entry): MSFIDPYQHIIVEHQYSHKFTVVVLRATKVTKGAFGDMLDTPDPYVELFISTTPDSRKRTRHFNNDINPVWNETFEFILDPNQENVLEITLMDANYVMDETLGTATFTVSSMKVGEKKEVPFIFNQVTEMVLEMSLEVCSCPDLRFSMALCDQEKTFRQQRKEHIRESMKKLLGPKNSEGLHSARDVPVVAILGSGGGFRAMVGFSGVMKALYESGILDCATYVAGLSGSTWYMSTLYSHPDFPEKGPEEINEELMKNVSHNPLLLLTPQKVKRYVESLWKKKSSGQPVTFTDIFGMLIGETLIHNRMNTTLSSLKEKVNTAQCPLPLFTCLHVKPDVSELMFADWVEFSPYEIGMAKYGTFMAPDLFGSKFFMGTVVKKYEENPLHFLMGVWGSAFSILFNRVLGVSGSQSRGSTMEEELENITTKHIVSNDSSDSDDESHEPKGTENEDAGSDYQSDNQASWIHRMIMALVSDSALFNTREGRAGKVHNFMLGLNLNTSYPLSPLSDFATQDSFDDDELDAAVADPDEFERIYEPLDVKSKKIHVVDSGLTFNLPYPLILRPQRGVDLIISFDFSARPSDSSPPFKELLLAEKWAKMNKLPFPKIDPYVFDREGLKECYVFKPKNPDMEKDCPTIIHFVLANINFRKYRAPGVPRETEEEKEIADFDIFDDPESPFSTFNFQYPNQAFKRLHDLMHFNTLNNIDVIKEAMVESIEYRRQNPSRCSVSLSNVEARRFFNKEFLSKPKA
METHOD SUMMARY: In vitro inhibition of cystolic phospholipase A2 alpha.
pIC50: −log10 of the molar value.

- SMILES STR: "COc1cc(C(=O)NS(=O)(=O)c2ccccc2C)ccc1Cc1cn(CC2CC2)c2ccc(NC(=O)OC3CCCC3)cc12"
  pIC50: 4.70
- SMILES STR: "COc1cc(C(=O)O)ccc1Cc1cn(C(c2ccccc2)c2ccccc2)c2ccc(N(C)C)cc12"
  pIC50: 4.62
- SMILES STR: "COc1cc(C(=O)NS(=O)(=O)c2ccccc2C)ccc1Cc1cn(Cc2ccncc2)c2ccc(NC(=O)OC3CCCC3)cc12"
  pIC50: 4.42
- SMILES STR: "COc1cc(C(=O)O)ccc1Cc1cn(C(c2ccccc2)c2ccccc2)c2ccc(F)cc12"
  pIC50: 6.00
- SMILES STR: "COc1cc(C(=O)O)ccc1Cc1cn(C(c2ccccc2)c2ccccc2)c2c(Cl)cccc12"
  pIC50: 5.68
- SMILES STR: "COc1cc(C(=O)O)ccc1Cc1cn(C(c2ccccc2)c2ccccc2)c2ccc(N)cc12"
  pIC50: 4.39
- SMILES STR: "COc1cc(C(=O)O)ccc1Cc1cn(C(c2ccccc2)c2ccccc2)c2cccc(Cl)c12"
  pIC50: 5.35
- SMILES STR: "COc1cc(C(=O)NS(=O)(=O)c2ccccc2C)ccc1Cc1cn(C)c2ccc(NC(=O)OC3CCCC3)cc12"
  pIC50: 4.07
- SMILES STR: "COc1ccc2c(c1)c(Cc1ccc(C(=O)O)cc1OC)cn2C(c1ccccc1)c1ccccc1"
  pIC50: 5.72
- SMILES STR: "CCCCNC(=O)Nc1ccc2c(c1)c(Cc1ccc(C(=O)O)cc1OC)cn2C(c1ccccc1)c1ccccc1"
  pIC50: 4.82
- SMILES STR: "COc1cc(C(=O)O)ccc1Cc1cn(C(c2ccccc2)c2ccccc2)c2ccccc12"
  pIC50: 5.44
- SMILES STR: "COc1cc(C(=O)NS(=O)(=O)c2ccccc2C)ccc1Cc1cn(C(c2ccccc2)c2ccccc2)c2ccc(NC(=O)OC3CCCC3)cc12"
  pIC50: 5.22
- SMILES STR: "COc1cc(C(=O)O)ccc1Cc1cn(C(c2ccccc2)c2ccccc2)c2ccc(S(C)(=O)=O)cc12"
  pIC50: 5.70
- SMILES STR: "COc1cc(C(=O)NS(=O)(=O)c2ccccc2C)ccc1Cc1cn(C2CCCC2)c2ccc(NC(=O)OC3CCCC3)cc12"
  pIC50: 4.77
- SMILES STR: "COc1cc(C(=O)O)ccc1Cc1cn(C(c2ccccc2)c2ccccc2)c2ccc(NS(C)(=O)=O)cc12"
  pIC50: 4.70
- SMILES STR: "COc1cc(C(=O)O)ccc1Cc1cn(C(c2ccccc2)c2ccccc2)c2cc(Cl)ccc12"
  pIC50: 6.10
- SMILES STR: "COc1cc(C(=O)O)ccc1Cc1cn(C(c2ccccc2)c2ccccc2)c2ccc(NC(=O)OC3CCCC3)cc12"
  pIC50: 5.30

Origin of values: ChEMBL document CHEMBL1145756
